- System: Helicobacter pylori
- method: Antibacterial activity against Helicobacter pylori 06-4 assessed as growth inhibition after 16 to 18 hr NCCLS agar dilution method
- Format: functional
measure.name: MIC

These recorded examples may help you get a feel for the data.
compound	result
CC[C@H]1OC(=O)[C@H](C)[C@@H](O[C@H]2C[C@@](C)(OC)[C@@H](O)[C@H](C)O2)[C@H](C)[C@@H](O[C@@H]2O[C@H](C)C[C@H](N(C)C)[C@H]2O)[C@](C)(OC)C[C@@H](C)C(=O)[C@H](C)[C@@H](O)[C@]1(C)O [CLARITHROMYCIN]	> 128 µg/mL
COc1ccc(C(=O)/C=C\O)cc1	128 µg/mL
COc1ccc(C(=O)C/C=N/NC(N)=O)cc1	> 128 µg/mL
Cc1ncc([N+](=O)[O-])n1CCO [METRONIDAZOLE]	> 128 µg/mL
COc1ccc(C(=O)C/C=N/O)cc1	> 128 µg/mL

The compound identified as COc1ccc(C(=O)C/C=N/NC(N)=S)cc1 registered its MIC at > 128 µg/mL

Form: compound = CO/N=C/CC(=O)c1ccc(OC)cc1 ; MIC = 32 µg/mL

Sample COc1ccc(C(=O)CC(O)S(=O)(=O)[O-])cc1.[Na+] (stereo not drawn) ; MIC observed: > 128 µg/mL

---

- Tested on: Helicobacter pylori
- method: Antibacterial activity against Helicobacter pylori assessed as growth inhibition after 16 to 18 hr NCCLS agar dilution method
- Format: functional
Recorded MIC90 for the following molecules

molecule	MIC90
CC[C@H]1OC(=O)[C@H](C)[C@@H](O[C@H]2C[C@@](C)(OC)[C@@H](O)[C@H](C)O2)[C@H](C)[C@@H](O[C@@H]2O[C@H](C)C[C@H](N(C)C)[C@H]2O)[C@](C)(OC)C[C@@H](C)C(=O)[C@H](C)[C@@H](O)[C@]1(C)O [CLARITHROMYCIN]	> 128 µg/mL
COc1ccc(C(=O)C/C=N/NC(N)=S)cc1	> 128 µg/mL
COc1ccc(C(=O)CC(O)S(=O)(=O)[O-])cc1.[Na+] (stereo not drawn)	> 128 µg/mL

// recorded MIC90 for Cc1ncc([N+](=O)[O-])n1CCO [METRONIDAZOLE] : > 128 µg/mL

---

MIC: recorded values
- Test system: Helicobacter pylori
- method: Antibacterial activity against Helicobacter pylori 06-2 assessed as growth inhibition after 16 to 18 hr NCCLS agar dilution method
- Format: functional

Consider the worked cases shown below.
molecule	result
CO/N=C/CC(=O)c1ccc(OC)cc1	32 µg/mL
Cc1ncc([N+](=O)[O-])n1CCO [METRONIDAZOLE]	> 128 µg/mL
COc1ccc(C(=O)CC(O)S(=O)(=O)[O-])cc1.[Na+] (stereo not given)	> 128 µg/mL
COc1ccc(C(=O)/C=C\O)cc1	> 128 µg/mL

# ---- query molecule ----
The recorded MIC for entry CC[C@H]1OC(=O)[C@H](C)[C@@H](O[C@H]2C[C@@](C)(OC)[C@@H](O)[C@H](C)O2)[C@H](C)[C@@H](O[C@@H]2O[C@H](C)C[C@H](N(C)C)[C@H]2O)[C@](C)(OC)C[C@@H](C)C(=O)[C@H](C)[C@@H](O)[C@]1(C)O [CLARITHROMYCIN] equals > 128 µg/mL

---

- Tested on: Helicobacter pylori
- method: Antibacterial activity against Helicobacter pylori 06-2 assessed as growth inhibition after 16 to 18 hr NCCLS agar dilution method
- Format: functional
Let's look at some compounds and their measured MIC.

Example compounds with recorded MIC:
In [3]: df
Out[3]:
                 structure_string       result
0        COc1ccc(C(=O)C/C=N/O)cc1  > 128 µg/mL
1  COc1ccc(C(=O)C/C=N/NC(N)=O)cc1  > 128 µg/mL

Input COc1ccc(C(=O)C/C=N/NC(N)=S)cc1 . Output MIC: > 128 µg/mL

---

- Tested on: Helicobacter pylori
- method: Antibacterial activity against Helicobacter pylori 06-3 assessed as growth inhibition after 16 to 18 hr NCCLS agar dilution method
- Format: functional
Entries and their MIC values follow.

compound	MIC
CC[C@H]1OC(=O)[C@H](C)[C@@H](O[C@H]2C[C@@](C)(OC)[C@@H](O)[C@H](C)O2)[C@H](C)[C@@H](O[C@@H]2O[C@H](C)C[C@H](N(C)C)[C@H]2O)[C@](C)(OC)C[C@@H](C)C(=O)[C@H](C)[C@@H](O)[C@]1(C)O	> 128 mg/L
COc1ccc(C(=O)/C=C\O)cc1	> 128 mg/L
COc1ccc(C(=O)C/C=N/O)cc1	64 mg/L
COc1ccc(C(=O)C/C=N/NC(N)=O)cc1	> 128 mg/L
CO/N=C/CC(=O)c1ccc(OC)cc1	32 mg/L

Entry under test: COc1ccc(C(=O)CC(O)S(=O)(=O)[O-])cc1.[Na+] (stereo not drawn) . Its MIC was > 128 mg/L

MIC recorded for this compound, Cc1ncc([N+](=O)[O-])n1CCO , is > 128 mg/L

Note to self: MIC recorded for COc1ccc(C(=O)C/C=N/NC(N)=S)cc1 was > 128 mg/L

---

- Tested on: Helicobacter pylori
- method: Antibacterial activity against Helicobacter pylori 06-1 assessed as growth inhibition after 16 to 18 hr NCCLS agar dilution method
- Assay type: functional
measure.name: MIC

molecule	measure.name	result
COc1ccc(C(=O)C/C=N/NC(N)=O)cc1	MIC	> 128 µg/mL
COc1ccc(C(=O)C/C=N/NC(N)=S)cc1	MIC	> 128 µg/mL
CO/N=C/CC(=O)c1ccc(OC)cc1	MIC	16 µg/mL
COc1ccc(C(=O)/C=C\O)cc1	MIC	> 128 µg/mL
Cc1ncc([N+](=O)[O-])n1CCO	MIC	> 128 µg/mL

Value of MIC reported for the molecule CC[C@H]1OC(=O)[C@H](C)[C@@H](O[C@H]2C[C@@](C)(OC)[C@@H](O)[C@H](C)O2)[C@H](C)[C@@H](O[C@@H]2O[C@H](C)C[C@H](N(C)C)[C@H]2O)[C@](C)(OC)C[C@@H](C)C(=O)[C@H](C)[C@@H](O)[C@]1(C)O is 64 µg/mL

Sure, the documented MIC for COc1ccc(C(=O)CC(O)S(=O)(=O)[O-])cc1.[Na+] (stereo not drawn) is > 128 µg/mL

MIC recorded for this molecule, COc1ccc(C(=O)C/C=N/O)cc1 , is 64 µg/mL

---

// values below are reported MIC90
- Tested on: Helicobacter pylori
- method: Antibacterial activity against Helicobacter pylori assessed as growth inhibition after 16 to 18 hr NCCLS agar dilution method
- Format: functional

Would you please look over these solved cases?
>>> df
                 structure_string         study_target       result
0       CO/N=C/CC(=O)c1ccc(OC)cc1  Helicobacter pylori     32 µg/mL
1         COc1ccc(C(=O)/C=C\O)cc1  Helicobacter pylori  > 128 µg/mL
2  COc1ccc(C(=O)C/C=N/NC(N)=O)cc1  Helicobacter pylori  > 128 µg/mL

Let's switch to this molecule now.
The measured MIC90 associated with COc1ccc(C(=O)C/C=N/O)cc1 reads > 128 µg/mL

These entries and their values trace back to ChEMBL document CHEMBL3045868.
